Test: DSSTox (CPDBAS) Carcinogenic Potency Database Summary MultiCellCall Results
Details: animal carcinogenicity bioassays, multi-cell call summary
Excerpt: The Carcinogenic Potency Database (CPDB) is a unique and widely used international resource of the results of over 6500 chronic, long-term animal cancer tests on over 1500 chemical substances. The CPDB provides easy access to the bioassay literature, with qualitative and quantitative analyses of both positive and negative experiments that have been published over the past 50 years in the general literature and by the National Cancer Institute/National Toxicology Program. […]
Active and inactive are the calls of the source.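 Rule for the calls: active = tumour findings in long-term animal cancer tests in more than one sex, species or organ; inactive = no tumour finding and more than one negative test.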
Use one of these outcomes when replying: 1 (yes) (active), 0 (no) (inactive)

Recorded results for 2 molecules are shown here.
molecule	class_name
O=S(=O)(O)c1ccc(N=Nc2cc(S(=O)(=O)O)c3ccccc3c2O)c2ccccc12	0 (no)
S=C([S-])NCCNC(=S)[S-].[Zn+2]	0 (no)

Prompt: Please indicate how the test categorized COC(=O)C(c1ccccc1)C1CCCCN1 (stereo not drawn) .
Completion: 1 (yes)
